Data provenance is patent US20130116263A1.

Target: PAK3 (Homo sapiens, UniProt O75914)
Sequence (O75914 1-544 isoform O75914-2): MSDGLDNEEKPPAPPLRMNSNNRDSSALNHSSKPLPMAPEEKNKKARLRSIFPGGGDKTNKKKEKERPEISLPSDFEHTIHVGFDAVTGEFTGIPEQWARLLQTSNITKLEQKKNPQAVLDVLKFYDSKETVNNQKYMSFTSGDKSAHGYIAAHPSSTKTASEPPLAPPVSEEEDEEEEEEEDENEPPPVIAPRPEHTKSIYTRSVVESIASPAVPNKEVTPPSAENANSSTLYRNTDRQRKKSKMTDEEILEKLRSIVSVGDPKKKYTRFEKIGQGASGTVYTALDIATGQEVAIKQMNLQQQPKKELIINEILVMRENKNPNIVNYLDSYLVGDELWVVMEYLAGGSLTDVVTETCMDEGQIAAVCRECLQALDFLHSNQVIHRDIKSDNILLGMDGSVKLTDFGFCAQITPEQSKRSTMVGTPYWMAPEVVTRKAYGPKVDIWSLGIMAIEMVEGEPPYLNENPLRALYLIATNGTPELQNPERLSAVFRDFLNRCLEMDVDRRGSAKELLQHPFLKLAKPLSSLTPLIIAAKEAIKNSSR
Assay: In vitro PAK inhibition assay (Z'-LYTE, SelectScreen), PAK3
Assay type: biochemical
Settings: read-out: PAK3 IC50
Protocol: Compounds are screened in 1% DMSO (final) in the well. For 10 point titrations, 3-fold serial dilutions are conducted. All Peptide/Kinase Mixtures are diluted to a 2× working concentration in the appropriate Kinase Buffer […] 7. Determine the fluorescence using a fluorescence plate reader […] The representative IC50 value with a known inhibitor for each kinase was determined at the ATP bin nearest to the ATP Km app.
ENDPOINT: IC50

Problem: # get_value(readout='IC50', item= Cc1cncc(-c2ccc(-c3cc4cnc(NC5CCOCC5)nc4n(Cc4ccccc4C(F)(F)F)c3=O)c(Cl)c2)n1 )
Solution: 50 to 500 nM

Problem: # get_value(readout='IC50', item= CCn1c(=O)c(-c2ccc(-c3nccnc3C)cc2Cl)cc2cnc(NC3CCOC3)nc21 (centres unmarked) )
Solution: 50 to 500 nM

Problem: # get_value(readout='IC50', item= CCn1c(=O)c(-c2ccc(-c3nccnc3C)cc2Cl)cc2cnc(NC3CCCCC3)nc21 )
Solution: > 5000 nM

Problem: # get_value(readout='IC50', item= CCn1c(=O)c(-c2ccc(-c3cnc(C)cn3)cc2Cl)cc2cnc(N[C@@H]3CCOC3)nc21 )
Solution: 500 to 5000 nM

Problem: # get_value(readout='IC50', item= CCn1c(=O)c(-c2ccc(-c3ccc(C)nc3)cc2Cl)cc2cnc(N[C@@H]3CCOC3)nc21 )
Solution: > 5000 nM

---

Target: PAK3 (Homo sapiens, UniProt O75914)
Test: In vitro PAK inhibition assay (Z'-LYTE, SelectScreen), PAK3
Format: biochemical
Conditions: read-out: PAK3 IC50
pIC50: −log10 of the molar value.
pIC50: recorded values

Observe how each entry below is paired with its result.
CCn1c(=O)c(-c2ccc(-c3cnccc3C)cc2Cl)cc2cnc(NC3CCOCC3)nc21
6.30 to 7.30
CCn1c(=O)c(-c2ccc(-c3noc(C)n3)cc2Cl)cc2cnc(N[C@H]3CC[C@H](N)CC3)nc21
6.30 to 7.30
CCn1c(=O)c(-c2ccc(-c3cncc(C)n3)cc2Cl)cc2cnc(N[C@H]3CC[C@H](CN)CC3)nc21
> 7.30
CCn1c(=O)c(-c2ccc(-c3cncc(C)n3)cc2Cl)cc2cnc(NC3CCC(CCN(C)C)CC3)nc21 (stereo not drawn)
6.30 to 7.30
Cc1cncc(-c2ccc(-c3cc4cnc(N[C@@H]5CCOC5)nc4n(C4CCN(C)CC4)c3=O)c(Cl)c2)n1
5.30 to 6.30
CCn1c(=O)c(-c2ccc(-c3nccnc3C)cc2Cl)cc2cnc(NC3CCOC(C)(C)C3)nc21 (racemic)
> 7.30

Now for another entry.
Problem: # get_value(readout='pIC50', item= CCNc1ncc2cc(-c3ccc(-c4cncc(C)n4)cc3Cl)c(=O)n([C@H]3CC[C@H](N)CC3)c2n1 )
Solution: > 7.30

---

Molecular target: UniProt:Q13153
Experiment: In vitro PAK inhibition assay (Z'-LYTE, SelectScreen), PAK1
Type: biochemical
Conditions: read-out: PAK1 IC50
Method: Compounds are screened in 1% DMSO (final) in the well. For 10 point titrations, 3-fold serial dilutions are conducted. All Peptide/Kinase Mixtures are diluted to a 2× working concentration in the appropriate Kinase Buffer […] 7. Determine the fluorescence using a fluorescence plate reader […] The representative IC50 value with a known inhibitor for each kinase was determined at the ATP bin nearest to the ATP Km app.
pIC50: −log10 of the molar value.
pIC50: recorded values

Observe how each entry below is paired with its result.
Cc1cncc(-c2ccc(-c3cc4cnc(N[C@@H]5CCOC5)nc4n(CCCN(C)C)c3=O)c(Cl)c2)n1
> 7.30
CCn1c(=O)c(-c2ccc(-c3cccnc3OC)cc2Cl)cc2cnc(NC3CCOCC3)nc21
5.30 to 6.30
CCn1c(=O)c(-c2ccc(-c3cncc(C)n3)cc2Cl)cc2cnc(N[C@H]3CC[C@H](CN)CC3)nc21
> 7.30

Problem: # query: pIC50 | item Cc1cncc(-c2ccc(-c3cc4cnc(NC5CCOCC5)nc4n(C4CCCC4)c3=O)c(Cl)c2)n1 | system: UniProt:Q13153
Solution: 6.30 to 7.30

Problem: # query: pIC50 | item CCn1c(=O)c(-c2ccc(-c3cnc(C)s3)cc2Cl)cc2cnc(N[C@@H]3CCOC3)nc21 | system: UniProt:Q13153
Solution: 6.30 to 7.30

Problem: # query: pIC50 | item CCn1c(=O)c(-c2ccc(-c3cncc(C)n3)cc2Cl)cc2cnc(NC3C[C@@H](C)O[C@@H](C)C3)nc21 (stereo partly drawn) | system: UniProt:Q13153
Solution: > 7.30

Problem: # query: pIC50 | item COCCn1c(=O)c(-c2ccc(-c3cnccn3)cc2Cl)cc2cnc(NC3CCOC3)nc21 (stereo not drawn) | system: UniProt:Q13153
Solution: 6.30 to 7.30

Problem: # query: pIC50 | item CCn1c(=O)c(-c2ccc(-c3cncc(C)n3)cc2Cl)cc2cnc(N[C@@H]3CCOC3)nc21 | system: UniProt:Q13153
Solution: > 7.30

Problem: # query: pIC50 | item Cc1cncc(-c2ccc(-c3cc4cnc(N[C@H]5CCOC5)nc4n(CCN(C)C)c3=O)c(Cl)c2)n1 | system: UniProt:Q13153
Solution: 6.30 to 7.30

Problem: # query: pIC50 | item CCn1c(=O)c(-c2ccc(-c3nccnc3C)cc2Cl)cc2cnc(NC3CCOCC3)nc21 | system: UniProt:Q13153
Solution: 6.30 to 7.30

Problem: # query: pIC50 | item CCn1c(=O)c(-c2ccc(-c3nccnc3C)cc2Cl)cc2cnc(NC3CCOC(C)C3)nc21 (stereo not drawn) | system: UniProt:Q13153
Solution: 6.30 to 7.30

Problem: # query: pIC50 | item CCn1c(=O)c(-c2ccc(-c3cccnc3)cc2Cl)cc2cnc(NC3CCOCC3)nc21 | system: UniProt:Q13153
Solution: 6.30 to 7.30

Problem: # query: pIC50 | item Cc1cncc(-c2ccc(-c3cc4cnc(N[C@@H]5CCOC5)nc4n(C4CCN(C)CC4)c3=O)c(Cl)c2)n1 | system: UniProt:Q13153
Solution: 6.30 to 7.30

Problem: # query: pIC50 | item O=c1c(-c2ccc(-c3cccnc3)cc2Cl)cc2cnc(NC3CCOCC3)nc2n1Cc1ccccc1C(F)(F)F | system: UniProt:Q13153
Solution: 6.30 to 7.30

Problem: # query: pIC50 | item CCn1c(=O)c(-c2ccc(-c3cncc(C)n3)cc2Cl)cc2cnc(NC3CCOC3)nc21 (stereo not drawn) | system: UniProt:Q13153
Solution: 6.30 to 7.30

---

pIC50: recorded values
Target: PAK2 (PAK65) (Homo sapiens)
Sequence (Q13177 whole entry): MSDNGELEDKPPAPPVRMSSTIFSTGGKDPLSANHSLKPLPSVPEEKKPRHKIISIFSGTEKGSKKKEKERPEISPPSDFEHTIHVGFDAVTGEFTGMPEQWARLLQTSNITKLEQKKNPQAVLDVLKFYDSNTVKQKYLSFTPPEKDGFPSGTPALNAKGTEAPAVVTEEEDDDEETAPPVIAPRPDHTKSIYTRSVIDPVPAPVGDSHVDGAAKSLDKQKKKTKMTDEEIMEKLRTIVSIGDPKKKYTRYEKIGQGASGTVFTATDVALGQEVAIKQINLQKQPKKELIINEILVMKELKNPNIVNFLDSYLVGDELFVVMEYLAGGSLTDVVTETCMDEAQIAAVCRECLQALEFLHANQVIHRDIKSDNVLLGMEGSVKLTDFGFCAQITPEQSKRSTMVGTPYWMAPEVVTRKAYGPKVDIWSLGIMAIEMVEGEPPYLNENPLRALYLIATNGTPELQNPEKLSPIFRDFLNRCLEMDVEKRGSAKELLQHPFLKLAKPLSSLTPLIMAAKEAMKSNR
Test: In vitro PAK inhibition assay (Z'-LYTE, SelectScreen), PAK2
Assay type: biochemical
Settings: read-out: PAK2 IC50
pIC50: −log10 of the molar value.

Observe how each entry below is paired with its result.
Cc1cncc(-c2ccc(-c3cc4cnc(N[C@@H]5CCOC5)nc4n(CCN)c3=O)c(Cl)c2)n1 [Example 99]
> 7.30
Cc1cncc(-c2ccc(-c3cc4cnc(N[C@H]5CCOC5)nc4n(C4CCNCC4)c3=O)c(Cl)c2)n1 [Example 106]
6.30 to 7.30
Cc1nccnc1-c1ccc(-c2cc3cnc(NC4CCOCC4)nc3n(C3CCCC3)c2=O)c(Cl)c1 [Example 88]
6.30 to 7.30
CCn1c(=O)c(-c2ccc(-c3noc(C)n3)cc2Cl)cc2cnc(NCCC3CCNCC3)nc21 [Example 137]
> 7.30
CCn1c(=O)c(-c2ccc(-c3nccnc3C)cc2Cl)cc2cnc(NC3CCCOC3)nc21 (centres unmarked) [Example 17]
6.30 to 7.30

Problem: # query: pIC50 | item Cc1cncc(-c2ccc(-c3cc4cnc(N[C@@H]5CCOC5)nc4n(CCCN)c3=O)c(Cl)c2)n1 [Example 97] | system: PAK2 (PAK65) (Homo sapiens)
Solution: > 7.30

Problem: # query: pIC50 | item CCn1c(=O)c(-c2ccc(-c3cnc(C)s3)cc2Cl)cc2cnc(N[C@@H]3CCOC3)nc21 [Example 55] | system: PAK2 (PAK65) (Homo sapiens)
Solution: 6.30 to 7.30

Problem: # query: pIC50 | item CCn1c(=O)c(-c2ccc(-c3cncc(C)n3)cc2Cl)cc2cnc(NC3CCOCC3)nc21 [Example 7] | system: PAK2 (PAK65) (Homo sapiens)
Solution: > 7.30

---

Target: PAK1 (Homo sapiens, UniProt Q13153)
Sequence (Q13153 whole entry): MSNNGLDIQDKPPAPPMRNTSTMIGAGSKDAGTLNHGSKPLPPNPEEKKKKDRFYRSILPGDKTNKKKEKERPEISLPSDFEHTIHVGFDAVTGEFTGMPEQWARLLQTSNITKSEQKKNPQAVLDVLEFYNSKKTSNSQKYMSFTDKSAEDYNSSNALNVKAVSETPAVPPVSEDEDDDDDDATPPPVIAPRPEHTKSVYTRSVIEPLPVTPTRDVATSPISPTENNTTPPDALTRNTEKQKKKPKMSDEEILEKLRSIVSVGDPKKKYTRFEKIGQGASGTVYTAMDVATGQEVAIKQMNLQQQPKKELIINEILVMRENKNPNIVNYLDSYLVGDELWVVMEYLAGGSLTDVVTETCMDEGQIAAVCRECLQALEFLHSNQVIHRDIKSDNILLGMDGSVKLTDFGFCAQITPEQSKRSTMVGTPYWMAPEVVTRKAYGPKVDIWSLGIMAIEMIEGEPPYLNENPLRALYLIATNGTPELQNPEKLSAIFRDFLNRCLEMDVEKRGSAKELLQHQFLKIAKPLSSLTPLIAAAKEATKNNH
Experiment: Additional in vitro PAK1 inhibition assay at ATP 10 uM and 1 mM
Format: biochemical
Settings: 1 mM ATP; read-out: PAK1 IC50 (1 mM ATP)
Method: Similar in vitro PAK1 and PAK-4 inhibition assays are conducted in compounds for the treatment of cancer, but under ATP concentrations of 10 uM and 1 mM.
pIC50: −log10 of the molar value.
ENDPOINT: pIC50

Observe how each entry below is paired with its result.
CCn1c(=O)c(-c2ccc(-c3noc(C)n3)cc2Cl)cc2cnc(NC3CCC(=O)NC3)nc21 (centres unmarked)
≤ 5.30
CCn1c(=O)c(-c2ccc(-c3noc(C)n3)cc2Cl)cc2cnc(NCc3ccccc3)nc21
≤ 5.30
CCn1c(=O)c(-c2ccc(-c3noc(C)n3)cc2Cl)cc2cnc(NC3CCCC3)nc21
≤ 5.30
Cc1nc(-c2ccc(-c3cc4cnc(NC5CCOCC5)nc4n(Cc4c(F)cccc4C(F)(F)F)c3=O)c(Cl)c2)no1
5.30 to 6.30
Cc1nc(-c2ccc(-c3cc4cnc(NC5CCOCC5)nc4n(Cc4cccc(CCN)c4)c3=O)c(Cl)c2)no1 [drawing 339]
6.30 to 7.30

Problem: # get_value(readout='pIC50', item= CCn1c(=O)c(-c2ccc(-c3noc(C)n3)cc2Cl)cc2cnc(NCC(=O)NC)nc21 )
Solution: ≤ 5.30

Problem: # get_value(readout='pIC50', item= Cc1nc(-c2ccc(-c3cc4cnc(NC5CCOCC5)nc4n(C4CCN(C(=O)CN)CC4)c3=O)c(Cl)c2)no1 )
Solution: ≤ 5.30

Problem: # get_value(readout='pIC50', item= CCn1c(=O)c(-c2ccc(-c3noc(C)n3)cc2Cl)cc2cnc(NC3CCN(C)C3=O)nc21 (centres unmarked) )
Solution: ≤ 5.30
